# TARGET ENTITY: T1, full-length human GIPR with an N-terminal FLAG tag, overexpressed on HEK-293T cells (human, UniProt P48546 22-466)
# T1 sequence (looked up): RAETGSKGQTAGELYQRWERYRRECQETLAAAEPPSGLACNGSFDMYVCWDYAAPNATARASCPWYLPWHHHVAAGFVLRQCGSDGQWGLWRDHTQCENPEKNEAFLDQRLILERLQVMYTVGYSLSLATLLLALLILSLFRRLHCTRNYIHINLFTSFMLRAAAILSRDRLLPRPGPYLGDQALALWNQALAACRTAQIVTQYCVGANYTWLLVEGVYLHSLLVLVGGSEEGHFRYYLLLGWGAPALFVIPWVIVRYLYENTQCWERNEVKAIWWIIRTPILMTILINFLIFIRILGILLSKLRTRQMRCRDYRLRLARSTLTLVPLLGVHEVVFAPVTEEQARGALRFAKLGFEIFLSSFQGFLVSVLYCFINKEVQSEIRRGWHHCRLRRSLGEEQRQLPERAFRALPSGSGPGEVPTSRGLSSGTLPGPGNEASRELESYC
# ASSAY NOTES: cell-based or functional assay
Starred links: 1 amine or outer side, 2 acyl side, 3 side chain; linkers in the order of their positions; H or OH if unused. Non-standard residues stand in square brackets, D forms with d. Groups on a side chain read outwards from the residue. No end group written: not given here. *: point of attachment. C18 diacid = O=C(O)CCCCCCCCCCCCCCCCC(=O)*; γGlu = O=C(O)[C@H](CCC(=O)[*:2])N[*:1]; NMeY = CN[C@@H](Cc1ccc(O)cc1)C(=O)O; Stearoyl = CCCCCCCCCCCCCCCCCC(=O)*; AEEA = NCCOCCOCC(=O)O; Aib = CC(C)(N)C(=O)O
READOUT TYPE: Human GIPR cAMP EC50, HEK293T
Be sure to follow the number with its unit.

Use the examples below as a reference point.
[NMeY][Aib]EGTFISDYSI[Aib]LDR[Aib]AQ[Aib]K([AEEA-AEEA-γGlu-γGlu-Stearoyl])FVNWLLAQRG-OH [Compound No. 202] :: 4.2 pM
H-Y[Aib]EGTFISDYSIALDKIK([AEEA-AEEA-γGlu-C18 diacid])Q[Aib]DFVEWLLAQRG-OH [Compound No. 160] :: 0.3 pM
YXEGTFISDYSIAXDKAAQQXFVEWLLAQRG (N-terminus H; Aib at 2, 14; Km at 21 = Lys(2OEGgEgE-C18DA); C-terminus OH) [Compound No. 157] :: 0.3 pM
YXEGTFISDYSIAXDRIAQRNFVEWLLAQSPSSGAPPPS (N-terminal Me (Me-Tyr 1); Aib at 2; Km at 14 = Lys(G5-C18DA); C-terminus OH) [Compound No. 179] :: 0.8 pM
[NMeY][Aib]EGTFISDYSI[Aib]LDR[Aib]AQ[Aib]K([G5-γGlu-γGlu-C18 diacid])FVNWLLAQRG-OH [Compound No. 210] :: 0.3 pM

Now, please, on to the next binder.
What measured Human GIPR cAMP EC50, HEK293T goes with H-Y[Aib]EGTFISDYSIALDKAK([AEEA-AEEA-γGlu-C18 diacid])Q[Aib]DFVEWLLAQRG-OH [Compound No. 161] ? 0.1 pM
